The reported measurements were obtained from ChEMBL document CHEMBL1132592.

target: Alkaline phosphatase, tissue-nonspecific isozyme (Mus musculus) (UniProt P09242); experiment: Alkaline phosphatase stimulatory activity of 10E-5 M compound in culture of MC3T3-E1 in absence of BMP
Sequence (P09242 whole entry): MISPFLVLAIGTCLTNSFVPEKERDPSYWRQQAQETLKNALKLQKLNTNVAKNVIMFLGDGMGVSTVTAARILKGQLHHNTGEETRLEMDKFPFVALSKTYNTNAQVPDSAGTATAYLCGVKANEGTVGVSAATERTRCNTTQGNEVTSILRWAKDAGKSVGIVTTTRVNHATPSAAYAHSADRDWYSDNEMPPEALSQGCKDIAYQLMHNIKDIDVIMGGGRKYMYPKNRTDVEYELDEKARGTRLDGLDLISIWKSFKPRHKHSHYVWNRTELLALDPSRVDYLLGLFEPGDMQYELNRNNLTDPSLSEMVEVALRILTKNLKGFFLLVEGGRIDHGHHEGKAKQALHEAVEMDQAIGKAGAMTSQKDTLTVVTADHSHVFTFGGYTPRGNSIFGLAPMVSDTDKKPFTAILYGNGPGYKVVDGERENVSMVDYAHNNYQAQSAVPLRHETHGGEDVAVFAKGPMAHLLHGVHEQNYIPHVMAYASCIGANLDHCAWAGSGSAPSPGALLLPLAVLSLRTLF
Catalogue of compounds with associated ALP activity
Answer with a number only.

Solved cases (2 shown):
{"columns": ["compound", "ALP activity"],
 "data": [
  ["CCOP(=O)(Cc1ccc(NC(=O)C2Cc3cc(OC)c(OC)cc3C(=O)CS2)cc1)OCC (racemic)", 0.143],
  ["CCOP(=O)(Cc1ccc(NC(=O)[C@H]2Cc3cc(OC)c(OC)cc3C(=O)CS2)cc1)OCC", 0.164]
]}

INPUT: Need ALP activity of `CCOP(=O)(Cc1ccc(NC(=O)[C@@H]2Cc3cc4c(cc3C(=O)[C@@H](C)S2)OCO4)cc1)OCC` , thanks.
OUTPUT: 0.115

INPUT: Need ALP activity of `CCOP(=O)(Cc1ccc(NC(=O)[C@@H]2Cc3cc(OC)c(OC)cc3C(=O)CS2)cc1)OCC` , thanks.
OUTPUT: 0.12

INPUT: Need ALP activity of CCOP(=O)(Cc1ccc(NC(=O)C2Cc3cc4c(cc3C(=O)C(C)S2)OCO4)cc1)OCC (racemic) , thanks.
OUTPUT: 0.178

INPUT: Need ALP activity of `CCOP(=O)(Cc1ccc(NC(=O)[C@H]2Cc3cc4c(cc3C(=O)[C@H](C)S2)OCO4)cc1)OCC` , thanks.
OUTPUT: 0.195
